# assay: LNP average particle size and polydispersity by dynamic light scattering
# Type: physicochemical
# conditions: LNP with the compound as amine lipid; Expt. 6; composition ratio (mol %) 50/9/38/3 for Cmpnd 49, 50/10/38.5/1.5 for the others
Item-by-item account of Z-Ave Size (nm)
Give the quantity in nm, number only.

{"columns": ["molecule", "Z-Ave Size (nm)"],
 "data": [
  ["CCCCC/C=C\\C/C=C\\CCCCCCCC(=O)OCC(COC(=O)CCCCCCC/C=C\\C/C=C\\CCCCC)OC(=O)CC[C@@H](CCCCCCCC)OC(=O)NCCN(C)CC", 83.00],
  ["CCCCC/C=C\\C/C=C\\CCCCCCCC(=O)OCC(COC(=O)CCCCCCC/C=C\\C/C=C\\CCCCC)OC(=O)CCC(CCCCCCCC)OC(=O)NCCN(C)CC (stereo not drawn)", 89.00],
  ["CCCCC/C=C\\C/C=C\\CCCCCCCC(=O)OCC(COC(=O)CCC(OCCCCCCCC)OCCCCCCCC)COC(=O)OCCCN(CC)CC (stereo not drawn) [Compound 49, reference compound]", 90.00],
  ["CCCCC/C=C\\C/C=C\\CCCCCCCC(=O)OCC(COC(=O)CCCCCCC/C=C\\C/C=C\\CCCCC)OC(=O)CC[C@H](CCCCCCCC)OC(=O)NCCN(C)CC", 88.00],
  ["CCCCC/C=C\\C/C=C\\CCCCCCCC(=O)OCC(COC(=O)CCCCCCC/C=C\\C/C=C\\CCCCC)OC(=O)C1(C(CCCCCCCC)OC(=O)NCCN(C)CC)CC1 (stereo not drawn)", 87.00]
]}

Kindly consider the entry below.
Entry CCCCC/C=C\C/C=C\CCCCCCCC(=O)OCC(COC(=O)CCCCCCC/C=C\C/C=C\CCCCC)OC(=O)CCC(CC(CC)CC)OC(=O)NCCN(C)CC (stereo not drawn) ; Z-Ave Size (nm) = 102.00

====

Item-by-item account of Number Average [nm]
# assay: LNP average particle size and polydispersity by dynamic light scattering
# Format: physicochemical
# conditions: Table 13; LNP sgRNA:Cas9 mRNA 1:2 w/w, N/P 6.0
Give the quantity in nm, number only.

{"columns": ["compound", "quantityMeasured", "readoutValue"],
 "data": [
  ["CCCCC/C=C\\C/C=C\\CCCCCCCC(=O)OCC(COC(=O)CCCCCCC/C=C\\C/C=C\\CCCCC)OC(=O)CCC(CCCCCCCCCCCC)OC(=O)NCCN1CCCC1 (stereo not shown)", "Number Average [nm]", 76.76],
  ["CCCCC/C=C\\C/C=C\\CCCCCCCC(=O)OCC(COC(=O)CCC(OCCCCCCCC)OCCCCCCCC)COC(=O)OCCCN(CC)CC (stereo not shown) [Compound 49, reference compound]", "Number Average [nm]", 74.82],
  ["CCCCC/C=C\\C/C=C\\CCCCCCCC(=O)OCC(COC(=O)CCCCCCC/C=C\\C/C=C\\CCCCC)OC(=O)CCC(CCCCCCCC)OC(=O)NCCN(C)CC (stereo not shown)", "Number Average [nm]", 75.88],
  ["CCCCC/C=C\\C/C=C\\CCCCCCCC(=O)OCC(COC(=O)CCCCCCC/C=C\\C/C=C\\CCCCC)OC(=O)CCC(CCCCCC)OC(=O)NCCN1CCCC1 (racemic)", "Number Average [nm]", 84.16],
  ["CCCCC/C=C\\C/C=C\\CCCCCCCC(=O)OCC(COC(=O)CCCCCCC/C=C\\C/C=C\\CCCCC)OC(=O)CCC(CCCCC)OC(=O)NCCN1CCCC1 (stereo not shown)", "Number Average [nm]", 91.47],
  ["CCCCC/C=C\\C/C=C\\CCCCCCCC(=O)OCC(COC(=O)CCCCCCC/C=C\\C/C=C\\CCCCC)OC(=O)CCC(CCCC)OC(=O)NCCN1CCCC1 (stereo not shown)", "Number Average [nm]", 93.05]
]}

Kindly consider the entry below.
Entry CCCCC/C=C\C/C=C\CCCCCCCC(=O)OCC(COC(=O)CCCCCCC/C=C\C/C=C\CCCCC)OC(=O)CCC(CCCCCCCC)OC(=O)NCCN1CCCC1 (stereo not shown) ; Number Average [nm] = 80

====

Item-by-item account of Encapsulation (%)
# assay: RNA encapsulation efficiency of LNP (Ribogreen fluorescence assay)
# Format: physicochemical
# conditions: LNP with the compound as amine lipid; Expt. 9; composition ratio (mol %) 50/9/38/3 for Cmpnd 49, 50/10/38.5/1.5 for the others
Give the quantity in %, number only.

{"columns": ["molecule", "Encapsulation (%)"],
 "data": [
  ["CCCCC/C=C\\C/C=C\\CCCCCCCC(=O)OCC(COC(=O)CCCCCCC/C=C\\C/C=C\\CCCCC)OC(=O)CCC(CC/C=C\\CCCCC)OC(=O)NCCN1CCCC1 (stereo not shown)", 99],
  ["CCCCC/C=C\\C/C=C\\CCCCCCCC(=O)OCC(COC(=O)CCCCCCC/C=C\\C/C=C\\CCCCC)OC(=O)CC[C@@H](CCCCCC)OC(=O)NCCN1CCCC1", 98],
  ["CCCCC/C=C\\C/C=C\\CCCCCCCC(=O)OCC(COC(=O)CCC(OCCCCCCCC)OCCCCCCCC)COC(=O)OCCCN(CC)CC (stereo not shown) [Compound 49, reference compound]", 98]
]}

Kindly consider the entry below.
Entry CCCCC/C=C\C/C=C\CCCCCCCC(=O)OCC(COC(=O)CCCCCCC/C=C\C/C=C\CCCCC)COC(=O)C(C)(C)C(CCCCCC)OC(=O)NCCN1CCCC1 (stereo not shown) ; Encapsulation (%) = 99

====

Item-by-item account of Z-Ave Size (nm)
# assay: LNP average particle size and polydispersity by dynamic light scattering
# Type: physicochemical
# conditions: LNP with the compound as amine lipid; Expt. 3; composition ratio (mol %) 50/9/38/3 for Cmpnd 49, 50/10/38.5/1.5 for the others
Record the result as a number with its unit.

Below: 2 compounds and their reported Z-Ave Size (nm).
{"columns": ["compound", "Z-Ave Size (nm)"],
 "data": [
  ["CCCCC/C=C\\C/C=C\\CCCCCCCC(=O)OCC(COC(=O)CCC(OCCCCCCCC)OCCCCCCCC)COC(=O)OCCCN(CC)CC (stereo not shown) [Compound 49, reference compound]", "77.07 nm"],
  ["CCCCC/C=C\\C/C=C\\CCCCCCCC(=O)OCC(COC(=O)CCCCCCC/C=C\\C/C=C\\CCCCC)OC(=O)CCC(CCCCCC)OC(=O)NCCN1CCCC1 (racemic)", "94.33 nm"]
]}

Entry CCCCC/C=C\C/C=C\CCCCCCCC(=O)OCC(COC(=O)CCCCCCC/C=C\C/C=C\CCCCC)OC(=O)CCC(CCCCCCCC)OC(=O)NCCN1CCCC1 (stereo not shown) ; Z-Ave Size (nm) = 96.78 nm

Entry CCCCC/C=C\C/C=C\CCCCCCCC(=O)OCC(COC(=O)CCCCCCC/C=C\C/C=C\CCCCC)OC(=O)CCC(CCCCC)OC(=O)NCCN1CCCC1 (stereo not shown) ; Z-Ave Size (nm) = 106.80 nm

====

# assay: RNA encapsulation efficiency of LNP (Ribogreen fluorescence assay)
# Type: physicochemical
# conditions: LNP with the compound as amine lipid; Expt. 3; composition ratio (mol %) 50/9/38/3 for Cmpnd 49, 50/10/38.5/1.5 for the others
quantityMeasured: Encapsulation (%)
Give the quantity in %, number only.

Below: 3 compounds and their reported Encapsulation (%).
{"columns": ["compound", "quantityMeasured", "readoutValue"],
 "data": [
  ["CCCCC/C=C\\C/C=C\\CCCCCCCC(=O)OCC(COC(=O)CCCCCCC/C=C\\C/C=C\\CCCCC)OC(=O)CCC(CCCCC)OC(=O)NCCN1CCCC1 (stereo not shown)", "Encapsulation (%)", 98],
  ["CCCCC/C=C\\C/C=C\\CCCCCCCC(=O)OCC(COC(=O)CCC(OCCCCCCCC)OCCCCCCCC)COC(=O)OCCCN(CC)CC (stereo not shown) [Compound 49, reference compound]", "Encapsulation (%)", 93],
  ["CCCCC/C=C\\C/C=C\\CCCCCCCC(=O)OCC(COC(=O)CCCCCCC/C=C\\C/C=C\\CCCCC)OC(=O)CCC(CCCCCC)OC(=O)NCCN1CCCC1 (racemic)", "Encapsulation (%)", 98]
]}

Kindly consider the entry below.
Entry CCCCC/C=C\C/C=C\CCCCCCCC(=O)OCC(COC(=O)CCCCCCC/C=C\C/C=C\CCCCC)OC(=O)CCC(CCCCCCCC)OC(=O)NCCN1CCCC1 (stereo not shown) ; Encapsulation (%) = 98

====

Item-by-item account of PDI
# assay: LNP average particle size and polydispersity by dynamic light scattering
# Assay type: physicochemical
# conditions: LNP with the compound as amine lipid; Expt. 2; composition ratio (mol %) 50/9/39.5/3 for Cmpnd 49, 50/9/39.5/1.5 for the others
# Excerpt: The LNPs have a size of about 1 to about 1,000 nm, about 10 to about 500 nm, about 20 to about 500 nm, in a sub-embodiment about 50 to about 400 nm, in a sub-embodiment about 50 to about 300 nm, in a sub-embodiment about 50 to about 200 nm, and in a sub-embodiment about 50 to about 150 nm, and in another sub-embodiment about 60 to about 120 nm. […] The average sizes (diameters) of the fully formed LNP, may be measured by dynamic light scattering on a Malvern Zetasizer. […]
# print the numeric value only

Below: 2 molecules and their reported PDI.
{"columns": ["molecule", "PDI"],
 "data": [
  ["CCCCC/C=C\\C/C=C\\CCCCCCCC(=O)OCC(COC(=O)CCCCCCC/C=C\\C/C=C\\CCCCC)OC(=O)CCC(CCCC)OC(=O)OCCCN1CCCC1 (centres unmarked) [Compound 68]", 0.051],
  ["CCCCC/C=C\\C/C=C\\CCCCCCCC(=O)OCC(COC(=O)CCC(OCCCCCCCC)OCCCCCCCC)COC(=O)OCCCN(CC)CC (centres unmarked) [Compound 49, reference compound]", 0.014]
]}

Entry CCCCC/C=C\C/C=C\CCCCCCCC(=O)OCC(COC(=O)CCCCCCC/C=C\C/C=C\CCCCC)OC(=O)CCC(CCCCCC)OC(=O)OCCCN1CCCC1 (centres unmarked) [Compound 45] ; PDI = 0.021

Entry CCCCC/C=C\C/C=C\CCCCCCCC(=O)OCC(COC(=O)CCCCCCC/C=C\C/C=C\CCCCC)OC(=O)CCC(CCCCCC)OC(=O)NCC1CCCN1C (centres unmarked) [Compound 44] ; PDI = 0.034

Entry CCCCC/C=C\C/C=C\CCCCCCCC(=O)OCC(COC(=O)CCCCCCC/C=C\C/C=C\CCCCC)OC(=O)CCC(CCCC)OC(=O)NCC1CCCN1C (centres unmarked) [Compound 67] ; PDI = 0.043

Source of measurements: patent US12077483B2
